test: NCI Yeast Anticancer Drug Screen. Data for the cln2 rad14 strain (AID 165);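 also: 0% = growth equal to vehicle treated cultures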; conditions: S. cerevisiae cln2 rad14 strain, at 50.0 µM, active compounds read high
About 79,000 compounds went through this panel and 15% of them were active in at least one assay; those are over-represented in the sample as a whole. Calls of active or inactive are those of the source. Rule as the data show it: active = growth inhibition above about 70%; inactive = the rest.

>  <Compound>
CCOC(=O)/C=C/C=C(\OCC)C1CCC2C3CC=C4CC(OC(C)=O)CCC4(C)C3CCC12C (stereo unspecified)

>  <growth inhibition>
19.4% (inactive)

$$$$
>  <Compound>
CCN(CC)CCOC(=O)Cc1ccccc1

>  <growth inhibition>
7.65% (inactive)

$$$$
>  <Compound>
NC(=O)c1cc2ccccc2c2ccccc12

>  <growth inhibition>
-33.3% (inactive)

$$$$
>  <Compound>
COc1ccc(/C=C/C(=O)c2sc(NC(=S)NC(=O)c3ccccc3F)nc2C)cc1OC

>  <growth inhibition>
30.1% (inactive)

$$$$
>  <Compound>
CN(C)Cc1nsc(N(C)C)n1

>  <growth inhibition>
-50% (inactive)

$$$$
>  <Compound>
COC(=O)c1cc(-c2ccccc2)nc2c(Cl)cc(Cl)cc12

>  <growth inhibition>
-28.6% (inactive)

$$$$
>  <Compound>
N#CC/C(C#N)=C/OC(=O)c1ccc(Cl)cc1

>  <growth inhibition>
-33.5% (inactive)

$$$$
>  <Compound>
CC(NCc1c(O)ccc2c(-c3ccccc3)cc(=O)oc12)C(=O)O (stereo unspecified)

>  <growth inhibition>
4.35% (inactive)

$$$$
>  <Compound>
Cc1ccc(N=C2c3cc([N+](=O)[O-])ccc3-c3ccc([N+](=O)[O-])cc32)cc1

>  <growth inhibition>
-18.1% (inactive)

$$$$
>  <Compound>
O=C(NC(=Nc1ccccc1)SCSC(=Nc1ccccc1)NC(=O)c1ccco1)c1ccco1

>  <growth inhibition>
12.7% (inactive)

$$$$
>  <Compound>
O=C(OCc1ccco1)c1ccc([N+](=O)[O-])cc1

>  <growth inhibition>
-32.6% (inactive)

$$$$
